The origin of these recorded values is paper PMC6864136.

Test system: Spodoptera frugiperda larvae
Assay: whole plant or invertebrate
Format: in vivo
Conditions: concentration 100 µg/mL
property_label: Antifeedant index (% AI) (%)

INSERT INTO measurements (compound, value_observed) VALUES
  ('C=CCc1ccc(OC(C)=O)c(OC)c1', 26.7),
  ('COc1cc(C2OCOCC2C)ccc1O (stereo not shown)', 10.5),
  ('C=CCc1ccc(OC(=O)c2ccc([N+](=O)[O-])cc2)c(OC)c1', 31.6),
  ('C/C=C/c1ccc(OC)c(OC)c1', 33.2);
